# ASSAYED TARGET: HIV-1 protease (Human immunodeficiency virus type 1 group M subtype B, UniProt P04585)
# EXPERIMENT DESCRIPTION: HIV-1 protease inhibition, spectrofluorometric assay
# Format: biochemical
# CONDITION CONTEXT: HIV-1 protease; at least 5 data points, standard error less than 7%
OUTCOME MEASURE: pKi
One number for each entry, as −log10 of the molar value.

C=CCC1OC(C)CC1OC(=O)NC(Cc1ccccc1)C(O)CN(CC(C)C)S(=O)(=O)c1ccc(OC)cc1 (centres unmarked); 9.40

Here is the next item to consider.
Entry `COc1ccc(S(=O)(=O)N(CC(C)C)C[C@@H](O)[C@H](Cc2ccccc2)NC(=O)O[C@H]2C[C@@H](C)O[C@H]2[C@@H]2CCCO2)cc1` under HIV-1 protease (Human immunodeficiency virus type 1 group M subtype B, UniProt P04585) had pKi of 9.51
